target: Recombinant ROCK1 (amino acids 1-477) (Homo sapiens, UniProt Q13464); construct: Recombinant ROCK1 (amino acids 1-477); by word order, ROCK1 from Carna Biosciences; assay: ROCK inhibition assay, LANCE Ultra TR-FRET kinase assay (ROCK1); conditions: 1 μM ATP, 50 nM ULight-CREBtide substrate
Sequence (Q13464 1-477): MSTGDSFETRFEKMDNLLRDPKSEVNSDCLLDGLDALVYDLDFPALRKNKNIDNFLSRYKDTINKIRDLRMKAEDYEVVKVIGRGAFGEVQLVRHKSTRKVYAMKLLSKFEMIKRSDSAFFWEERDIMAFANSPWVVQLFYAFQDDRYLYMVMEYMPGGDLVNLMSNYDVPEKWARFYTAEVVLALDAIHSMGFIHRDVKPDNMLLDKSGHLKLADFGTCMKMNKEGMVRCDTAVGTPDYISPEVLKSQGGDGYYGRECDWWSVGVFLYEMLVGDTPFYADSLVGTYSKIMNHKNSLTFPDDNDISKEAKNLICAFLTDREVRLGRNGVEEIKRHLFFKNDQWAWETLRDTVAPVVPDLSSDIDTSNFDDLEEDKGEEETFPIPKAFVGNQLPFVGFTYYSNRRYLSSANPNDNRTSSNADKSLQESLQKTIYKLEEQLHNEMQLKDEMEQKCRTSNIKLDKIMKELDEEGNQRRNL
pIC50: −log10 of the molar value.
Readout kind: pIC50

Fetch value of pIC50 on Recombinant ROCK1 (amino acids 1-477) (Homo sapiens, UniProt Q13464) for CNC(=O)c1cccc(C(C)n2cc(CCN(C)C)c3cc(-c4cn[nH]c4Cl)ccc3c2=O)c1 (stereo not drawn) .
7.00 to 7.96

Look up and report pIC50, with Recombinant ROCK1 (amino acids 1-477) (Homo sapiens, UniProt Q13464) as system, for `O=C1c2ccc(-c3cn[nH]c3C(F)(F)F)cc2NCN1[C@H](CO)c1cccc(Cl)c1`
< 6.30

Lab note: record pIC50 of `COc1cccc(Cn2cnc3cc(-c4c[nH]nc4C)ccc3c2=O)c1` tested on Recombinant ROCK1 (amino acids 1-477) (Homo sapiens, UniProt Q13464).
7.00 to 7.96

----------
Documented pIC50 across a set of compounds
molecular target: Recombinant ROCK2 (amino acids 5-554) (Homo sapiens, UniProt O75116); construct: ROCK2 (amino acids 5-554); by word order, ROCK2 from SignalChem; experiment: ROCK inhibition assay, LANCE Ultra TR-FRET kinase assay (ROCK2); conditions: 4 μM ATP, 50 nM ULight-CREBtide substrate
Sequence (O75116 5-554): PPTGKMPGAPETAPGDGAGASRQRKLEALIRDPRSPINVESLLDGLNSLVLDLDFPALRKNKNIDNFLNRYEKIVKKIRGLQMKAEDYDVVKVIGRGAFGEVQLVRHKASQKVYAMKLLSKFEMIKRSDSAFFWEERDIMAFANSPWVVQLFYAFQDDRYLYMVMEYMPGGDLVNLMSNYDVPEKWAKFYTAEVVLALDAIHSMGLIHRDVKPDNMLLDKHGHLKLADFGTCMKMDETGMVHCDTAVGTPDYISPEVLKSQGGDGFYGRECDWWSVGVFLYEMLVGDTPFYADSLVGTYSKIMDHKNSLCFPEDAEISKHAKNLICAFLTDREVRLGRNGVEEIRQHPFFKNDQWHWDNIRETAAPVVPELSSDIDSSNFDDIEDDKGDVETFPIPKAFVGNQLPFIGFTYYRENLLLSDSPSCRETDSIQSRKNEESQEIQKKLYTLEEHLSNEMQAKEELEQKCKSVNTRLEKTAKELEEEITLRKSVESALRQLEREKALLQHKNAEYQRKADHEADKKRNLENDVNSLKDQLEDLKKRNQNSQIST
pIC50: −log10 of the molar value.

Compound: CN(C)c1cccc(CNC(=O)c2cccc(Cn3cnc4cc(-c5cn[nH]c5C(F)F)ccc4c3=O)c2)c1
Assay target: Recombinant ROCK2 (amino acids 5-554) (Homo sapiens, UniProt O75116)
Data value: 7.00 to 8.00
--
Compound: Cn1nccc1-c1ccc2c(=O)n(Cc3cccc(C(=O)NCc4ccc(F)nc4)c3)ccc2c1
Assay target: Recombinant ROCK2 (amino acids 5-554) (Homo sapiens, UniProt O75116)
Data value: > 8.00

Recall the reported pIC50 of CC(c1cccc(O)c1)n1ccc2cc(-c3c[nH]nc3C(F)F)ccc2c1=O (centres unmarked) on Recombinant ROCK2 (amino acids 5-554) (Homo sapiens, UniProt O75116) and write it down.
> 8.00

Give pIC50 for this entry on Recombinant ROCK2 (amino acids 5-554) (Homo sapiens, UniProt O75116): `Cn1ccc(NC(=O)c2cccc(Cn3ccc4cc(-c5ccnc(N)c5)ccc4c3=O)c2)n1`
> 8.00

Give pIC50 only, for `O=C(NC1CCOCC1)c1cccc(Cn2cnc3cc(-c4cn[nH]c4C(F)(F)F)ccc3c2=O)c1` , using Recombinant ROCK2 (amino acids 5-554) (Homo sapiens, UniProt O75116) data.
> 8.00

----------
We begin with a simple list: items and their reported IC50.
molecular target: Recombinant ROCK2 (amino acids 5-554) (Homo sapiens, UniProt O75116); construct: ROCK2 (amino acids 5-554); by word order, ROCK2 from SignalChem; assay: ROCK inhibition assay, LANCE Ultra TR-FRET kinase assay (ROCK2); format: biochemical; details: 4 μM ATP, 50 nM ULight-CREBtide substrate

Below, 10 compounds whose answers are already recorded.
Compound: O=C(NCCO)c1cc(F)cc(Cn2ccc3cc(-c4c[nH]nc4Cl)ccc3c2=O)c1
Assay target: Recombinant ROCK2 (amino acids 5-554) (Homo sapiens, UniProt O75116)
Data value: 10 to 100 nM
--
Compound: O=c1c2ccc(-c3c[nH]nc3Cl)cc2ccn1Cc1cccc(O)c1
Assay target: Recombinant ROCK2 (amino acids 5-554) (Homo sapiens, UniProt O75116)
Data value: < 10 nM
--
Compound: [2H]C([2H])([2H])NC(=O)c1cccc(Cn2cnc3cc(-c4ccnn4C)ccc3c2=O)c1
Assay target: Recombinant ROCK2 (amino acids 5-554) (Homo sapiens, UniProt O75116)
Data value: < 10 nM
--
Compound: C[C@H](c1cccc(C(=O)NCCO)c1)n1cnc2cc(-c3cn[nH]c3C(F)F)ccc2c1=O
Assay target: Recombinant ROCK2 (amino acids 5-554) (Homo sapiens, UniProt O75116)
Data value: 10 to 100 nM
--
Compound: Cc1[nH]ncc1-c1ccc2c(c1)NCN([C@H](CO)c1cccc(Cl)c1)C2=O
Assay target: Recombinant ROCK2 (amino acids 5-554) (Homo sapiens, UniProt O75116)
Data value: 100 to 500 nM
--
Compound: Cc1nocc1-c1ccc2c(=O)n(Cc3cc(F)cc(C(=O)Nc4ccc5c(c4)CCN(C)C5)c3)ccc2c1
Assay target: Recombinant ROCK2 (amino acids 5-554) (Homo sapiens, UniProt O75116)
Data value: < 10 nM
--
Compound: Cn1nccc1-c1ccc2c(=O)n(Cc3cccc(C(=O)NC4CCN(C5COC5)CC4)c3)ccc2c1
Assay target: Recombinant ROCK2 (amino acids 5-554) (Homo sapiens, UniProt O75116)
Data value: 10 to 100 nM
--
Compound: CC(O)c1cn(Cc2cccc(C(=O)NC3CC3)c2)c(=O)c2ccc(-c3c[nH]nc3C(F)(F)F)cc12 (stereo not shown)
Assay target: Recombinant ROCK2 (amino acids 5-554) (Homo sapiens, UniProt O75116)
Data value: 10 to 100 nM
--
Compound: O=C(CCc1ccccn1)Nc1cccc(Cn2ccc3cc(-c4c[nH]nc4C(F)(F)F)ccc3c2=O)c1
Assay target: Recombinant ROCK2 (amino acids 5-554) (Homo sapiens, UniProt O75116)
Data value: < 10 nM
--
Compound: CNC(=O)c1cccc([C@@H](C)n2cnc3cc(-c4cn[nH]c4Cl)ncc3c2=O)c1
Assay target: Recombinant ROCK2 (amino acids 5-554) (Homo sapiens, UniProt O75116)
Data value: < 10 nM

Given `C[C@H](c1cccc(C(=O)NCC2CCN(C)CC2)c1)n1cnc2cc(-c3cn[nH]c3Cl)ccc2c1=O` , report its IC50 on Recombinant ROCK2 (amino acids 5-554) (Homo sapiens, UniProt O75116).
< 10 nM

Write down the reported IC50 (system: Recombinant ROCK2 (amino acids 5-554) (Homo sapiens, UniProt O75116)) of CNC(=O)c1cc(F)cc(C(C)n2ccc3cc(-c4conc4C)ccc3c2=O)c1 (stereo not shown)
< 10 nM

For Recombinant ROCK2 (amino acids 5-554) (Homo sapiens, UniProt O75116), give IC50 of the listed compound: `Cn1nccc1-c1ccc2c(=O)n(Cc3cccc(C(=O)NC4CCN(CC(F)(F)F)CC4)c3)ccc2c1`
< 10 nM

For Recombinant ROCK2 (amino acids 5-554) (Homo sapiens, UniProt O75116), give IC50 of the listed compound: O=c1c2ccc(-c3cn[nH]c3Cl)cc2ncn1C(CO)c1cccc(Cl)c1 (stereo not shown)
10 to 100 nM

Consider the compound `C[C@H](c1cccc(C(=O)NCC2COC2)c1)n1cnc2cc(-c3ccnn3C)ccc2c1=O` tested on Recombinant ROCK2 (amino acids 5-554) (Homo sapiens, UniProt O75116); state its IC50.
< 10 nM

Given `Nc1cc(-c2ccc3c(=O)n(Cc4cccc(C(=O)Nc5ccno5)c4)ccc3c2)ccn1` , report its IC50 on Recombinant ROCK2 (amino acids 5-554) (Homo sapiens, UniProt O75116).
100 to 500 nM

----------
biological target: Recombinant ROCK2 (amino acids 5-554) (Homo sapiens, UniProt O75116); construct: ROCK2 (amino acids 5-554); by word order, ROCK2 from SignalChem; test: ROCK inhibition assay, LANCE Ultra TR-FRET kinase assay (ROCK2); settings: 4 μM ATP, 50 nM ULight-CREBtide substrate
pIC50: −log10 of the molar value.
Readout kind: pIC50

Examples with their reported pIC50 follow.
Molecule: Cc1nocc1-c1ccc2c(=O)n(Cc3cccc(C(=O)N[C@H]4CC[C@H](O)CC4)c3)ccc2c1
pIC50: 7.00 to 8.00
//
Molecule: CNC(=O)c1cccc(C(C)n2cc(CCN(C)C)c3cc(-c4cn[nH]c4C(F)(F)F)ccc3c2=O)c1 (stereo not shown)
pIC50: > 8.00
//
Molecule: CNC(=O)c1cc(F)cc(Cn2ccc3cc(-c4cn[nH]c4C(F)F)ccc3c2=O)c1
pIC50: > 8.00
//
Molecule: Cn1nccc1-c1ccc2c(=O)n(Cc3cccc(C(=O)NCC4COC4)c3)cnc2c1
pIC50: 7.00 to 8.00
//
Molecule: C[C@H](c1cccc(C(=O)NCc2ccc(F)nc2)c1)n1cnc2cc(-c3cn[nH]c3Br)ccc2c1=O
pIC50: > 8.00

Provide measured pIC50 value, entry: `CC(=O)Nc1cccc(Cn2ccc3cc(-c4cnoc4C)ccc3c2=O)c1`
7.00 to 8.00

For the molecule `CNC(=O)c1cccc(Cn2cnc3cc(-c4cn[nH]c4Cl)ccc3c2=O)c1` , report pIC50.
> 8.00

State its pIC50: `CNC(=O)c1cccc(Cn2cnc3cc(-c4ccnc(N)c4)ccc3c2=O)c1`
7.00 to 8.00

Specify measured pIC50 for `Cc1nocc1-c1ccc2c(=O)n(Cc3cc(F)cc(C(=O)NCCN4CCOCC4)c3)ccc2c1` .
7.00 to 8.00

Identify measured pIC50 associated with `Cn1ccc(NC(=O)c2cc(F)cc(Cn3ccc4cc(-c5ccnc(N)c5)ccc4c3=O)c2)n1`
> 8.00

Where do these numbers come from? They come from patent US12064426B2.
